Attribution: patent EP3057951B1

Target: wild type human RORγt LBD (Homo sapiens)
Construct: expressed in transfected cells; host or cells: HEK293T
Assay: RORγt (LBD) Reporter Assay (GAL4-luciferase, HEK293T cells)
Type: cell-based
Conditions: HEK293T cells
The molecules listed here are annotated with their log10 IC50.
measured.parameter: log10 IC50 (log10 of the value in nM)

                                   molecule  number
0  COc1ccc(C(O)(c2cccnc2)c2ccc3nc(OC)c(Cc4ccc(-n5cccn5)cc4)c(Cl)c3c2)cc1OC (single isomer, unassigned) [Example 159c]    1.71
1  COc1nc2ccc(C(O)(c3ccc(F)cc3)c3cccnc3)cc2c(Cl)c1Cc1ccc(-n2cccn2)cc1 (single isomer, unassigned) [Example 158c]    2.11
2  COc1nc2ccc(C(O)(c3cncn3C)c3cncn3C)cc2c(Cl)c1Cc1ccc(C(F)(F)F)cc1 [Example 149]    0.38
3  COc1nc2ccc(C(O)(c3ccc(F)cc3)c3cncn3C)cc2c(Cl)c1Cc1ccc(-n2cccn2)cc1 (single isomer, unassigned) [Example 160c]    1.67
4  COc1nc2ccc(C(O)(c3ccc(F)cc3)C3CCN(C(C)=O)CC3)cc2c(Cl)c1Cc1ccc(-n2cccn2)cc1 (single isomer, unassigned) [Example 157b]    1.53
5  COc1nc2ccc(C(O)(c3ccc(C)nc3C)c3cnnn3C)cc2c(Cl)c1Cc1ccc(S(C)(=O)=O)cc1 (single isomer, unassigned) [Example 117c]    1.72

###

Biological target: wild type human RORγt LBD (Homo sapiens, UniProt P51449)
Construct: expressed in transfected cells; host or cells: HEK293T
Sequence (P51449 258-518): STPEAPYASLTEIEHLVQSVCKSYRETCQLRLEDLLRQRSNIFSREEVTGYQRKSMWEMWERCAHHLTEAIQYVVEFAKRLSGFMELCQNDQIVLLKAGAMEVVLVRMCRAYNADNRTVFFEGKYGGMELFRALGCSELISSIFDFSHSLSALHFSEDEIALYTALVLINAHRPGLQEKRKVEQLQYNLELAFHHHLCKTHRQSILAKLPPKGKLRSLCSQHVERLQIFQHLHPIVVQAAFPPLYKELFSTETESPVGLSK
Assay: RORγt (LBD) Reporter Assay (GAL4-luciferase, HEK293T cells)
Type: cell-based
Settings: 6 µM compound concentration; 6 µM
Listing of entries alongside the reported RORγt (LBD) Reporter Assay, % inhibition @ 6 µM.
measured.parameter: RORγt (LBD) Reporter Assay, % inhibition @ 6 µM (%)

molecule	readout.unit	number
COc1nc2ccc(C(O)(c3cnnn3C)C3CCOCC3)cc2c(Cl)c1Cc1ccc(C(F)(F)F)cc1 (single isomer, unassigned) [Example 85c]	%	100
Cn1cncc1C(O)(c1ccc2nc(C(F)(F)F)c(Cc3ccccc3)c(C#N)c2c1)c1ccccn1 (single isomer, unassigned) [Example 99c]	%	97
COc1nc2ccc(C(O)(c3ccc(C)nc3C)c3cnnn3C)cc2c(Cl)c1Cc1ccc(-n2cncn2)cc1 (single isomer, unassigned) [Example 22c]	%	98
CC(=O)N1CCC(C(O)(c2ccc(C(F)(F)F)nc2)c2cc(C)c3nc(C#N)c(Cc4ccc(-n5cccn5)cc4)c(C#N)c3c2)CC1 (single isomer, unassigned) [Example 79c]	%	103
COc1nc2ccc(C(O)(c3sc(C)nc3C)c3cnnn3C)cc2c(Cl)c1Cc1ccc(-n2cccn2)cc1 (single isomer, unassigned) [Example 21c]	%	98
COc1nc2ccc(C(O)(c3ccc(C)nc3C)c3cnnn3C)cc2c(Cl)c1Cc1ccc(C(F)(F)F)nc1 (single isomer, unassigned) [Example 40c]	%	94
COc1nc2ccc(C(O)(c3cnnn3C)c3cnc(C)n3C)cc2c(Cl)c1Cc1ccc(C(F)(F)F)nc1 (single isomer, unassigned) [Example 43c]	%	99
COc1nc2ccc(C(O)(c3ccccc3)C3CCN(C(C)=O)CC3)cc2c(Cl)c1Cc1ccc(C(F)(F)F)cc1 (single isomer, unassigned) [Example 69c]	%	99
COc1c(Cc2ccccc2)c(C(F)(F)F)nc2ccc(C(O)(c3ccc(C(F)(F)F)nc3)c3cncn3C)cc12 (single isomer, unassigned) [Example 106c]	%	65
COc1c(Cc2ccccc2)c(C(F)(F)F)nc2ccc(C(O)(c3ccccn3)c3cncn3C)cc12 (single isomer, unassigned) [Example 98b]	%	74
Cn1cc(-c2nc3ccc(C(O)(c4ccc(C(F)(F)F)nc4)c4cncn4C)cc3c(C#N)c2Cc2ccccc2)cn1 (single isomer, unassigned) [Example 112c]	%	71
COc1c(Cc2ccccc2)c(C(F)(F)F)nc2ccc(C(O)(c3ccc(C(F)(F)F)nc3)c3cncn3C)cc12 (single isomer, unassigned) [Example 106b]	%	94

###

Target: wild type human RORγt ligand binding domain (RORyt LBD) (Homo sapiens, UniProt P51449)
Construct: His-tag (N); TurboTEV protease cleavage site (ENLYFQG) (N)
Sequence (P51449 258-518): as above
Test: RORγt ThermoFluor assay (thermal shift, binding affinity KD)
pKd: −log10 of the molar value.
Respond with Satisfied for pKd values of 9 and above, Not satisfied for values below.

molecule	label
CCc1nc2ccc(C(O)(c3cnnn3C)C3CCOCC3)cc2c(Cl)c1Cc1ccc(C(F)(F)F)cc1 (stereo not drawn) [Example 33a]	Satisfied
COc1nc2ccc(C(O)(c3cnnn3C)c3cnc(C)n3C)cc2c(C#N)c1Cc1ccc(C(F)(F)F)nc1 (single isomer, unassigned) [Example 44b]	Not satisfied
COc1nc2ccc(C(O)(c3ccc(C(F)(F)F)nc3)c3cnnn3C)cc2c(Cl)c1Cc1ccc(C(F)(F)F)cc1 (racemic) [Example 75a]	Not satisfied
COc1nc2ccc(C(O)(c3ccc(C)nc3C)c3cnnn3C)cc2c(Cl)c1Cc1ccc(-n2cccn2)cc1 (single isomer, unassigned) [Example 17b]	Not satisfied
COc1nc2ccc(C(O)(c3cccnc3)c3cccc(F)c3)cc2c(Cl)c1Cc1ccc(-n2cccn2)cc1 (stereo not drawn)	Not satisfied
COc1nc2ccc(C(O)(c3ccc(C)nc3C)c3cnnn3C)cc2c(Cl)c1Cc1ccc(-n2cccn2)cc1 (single isomer, unassigned) [Example 17c]	Satisfied
Cc1ccc(C(O)(c2ccc3nc(N4CCC4)c(Cc4ccc(-n5cccn5)cc4)c(Cl)c3c2)c2cnnn2C)c(C)n1 (single isomer, unassigned) [Example 141b]	Not satisfied
COc1c(Cc2ccccc2)c(C(F)(F)F)nc2ccc(C(O)(c3ccccn3)c3cncn3C)cc12 (single isomer, unassigned) [Example 98c]	Not satisfied
COc1nc2ccc(C(O)(c3cc(C)nc(C)c3)c3cnnn3C)cc2c(Cl)c1Cc1ccc(C(F)(F)F)cc1 (single isomer, unassigned) [Example 84c]	Satisfied
Cn1cncc1C(O)(c1ccc(C(F)(F)F)nc1)c1ccc2nc(N3CCCC3)c(Cc3ccc(-n4cccn4)cc3)c(Cl)c2c1 (single isomer, unassigned) [Example 145b]	Not satisfied
COc1nc2ccc(C(O)(c3cccnc3)c3ccc(Cl)c(Cl)c3)cc2c(Cl)c1Cc1ccc(-n2cccn2)cc1 (single isomer, unassigned) [Example 161b]	Not satisfied
COc1nc2ccc(C(O)(c3ccc(C)nc3C)C3CN(C(=O)OC(C)(C)C)C3)cc2c(Cl)c1Cc1ccc(C(F)(F)F)cc1 (stereo not drawn)	Not satisfied
COc1nc2ccc(C(O)(c3ccc(C)nc3C)c3cncn3C)cc2c(Cl)c1Cc1ccc(C(F)(F)F)cc1 (single isomer, unassigned) [Example 88b]	Not satisfied
Cn1cncc1C(O)(c1ccc(C#N)cc1)c1ccc2nc(C(F)(F)F)c(Cc3ccccc3)c(C#N)c2c1 (stereo not drawn)	Not satisfied
COc1nc2ccc(C(O)(c3cnnn3C)C3CCN(C(C)=O)CC3)cc2c(Cl)c1Cc1ccc(C(F)(F)F)cc1 (single isomer, unassigned) [Example 74c]	Not satisfied
Cc1cc(C(O)(c2ccc(C(F)(F)F)nc2)c2cncn2C)cc2c(Cl)c(Cc3ccc(-n4cccn4)cc3)c(N3CCC3)nc12 (stereo not drawn) [Example 137a]	Not satisfied
COc1nc2ccc(C(O)(c3cnnn3C)c3cnc(C)n3C)cc2c(Cl)c1Cc1ccc(C(F)(F)F)nc1 (single isomer, unassigned) [Example 43b]	Satisfied
CCc1nc2ccc(C(O)(c3cnc(C)n3C)c3cnc(C)n3C)cc2c(Cl)c1Cc1ccc(C(F)(F)F)cc1	Satisfied
COc1nc2ccc(C(O)(c3cnc(C)n3C)c3cnc(C)n3C)cc2c(C#N)c1Cc1ccccc1C(F)(F)F	Satisfied
COc1nc2ccc(C(O)(c3ccc(C)nc3C)c3cnc(C)n3C)cc2c(Cl)c1Cc1ccc(C(F)(F)F)cc1 (single isomer, unassigned) [Example 57c]	Satisfied
Cc1ccc(C(O)(c2ccc3nc(N4CC(F)(F)C4)c(Cc4ccc(C(F)(F)F)cc4)c(Cl)c3c2)c2cnnn2C)c(C)n1 (single isomer, unassigned) [Example 148c]	Satisfied

###

Target: wild type human RORγt ligand binding domain (RORyt LBD) (Homo sapiens, UniProt P51449)
Construct: His-tag (N); TurboTEV protease cleavage site (ENLYFQG) (N)
Assay: RORγt ThermoFluor assay (thermal shift, binding affinity KD)
pKd: −log10 of the molar value.
Criterion: pKd meeting or surpassing 8. Met: Y. Not met: N.

In [3]: df
Out[3]:
                                   compound                       experimental_system  label
0  COc1nc2ccc(C(O)(c3ccc(F)cc3)c3cccnc3)cc2c(Cl)c1Cc1ccc(-n2cccn2)cc1 (stereo not drawn) [Example 158a]  wild type human RORγt ligand binding domain (RORyt LBD) (Homo sapiens, UniProt P51449)      N
1  COc1nc2ccc(C(O)(c3ccc(C)nc3C)C3CN(C(C)=O)C3)cc2c(Cl)c1Cc1ccc(C(F)(F)F)cc1 (single isomer, unassigned) [Example 87b]  wild type human RORγt ligand binding domain (RORyt LBD) (Homo sapiens, UniProt P51449)      Y
2  COc1nc2ccc(C(O)(c3ccc(Cl)cc3)c3cncn3C)cc2c(C#N)c1Cc1ccc(C(F)(F)F)cc1 (single isomer, unassigned) [Example 55b]  wild type human RORγt ligand binding domain (RORyt LBD) (Homo sapiens, UniProt P51449)      N
3  CC(=O)N1CCC(C(O)(c2ccccc2)c2ccc3nc(C)c(Cc4ccc(C(F)(F)F)cc4)c(Cl)c3c2)CC1 (stereo not drawn) [Example 27a]  wild type human RORγt ligand binding domain (RORyt LBD) (Homo sapiens, UniProt P51449)      Y
4  COc1nc2ccc(C(O)(c3ccccc3)C3CCN(C(C)=O)CC3)cc2c(Cl)c1Cc1ccc(C(F)(F)F)cc1 (single isomer, unassigned) [Example 69c]  wild type human RORγt ligand binding domain (RORyt LBD) (Homo sapiens, UniProt P51449)      N
5  COc1nc2ccc(C(O)(c3ccc(F)cc3)C3CCN(C(C)=O)CC3)cc2c(Cl)c1Cc1ccc(F)cc1 (single isomer, unassigned) [Example 51b]  wild type human RORγt ligand binding domain (RORyt LBD) (Homo sapiens, UniProt P51449)      Y
6  CON(C)c1nc2ccc(C(O)(c3ccc(C(F)(F)F)nc3)c3cncn3C)cc2c(N(C)OC)c1Cc1ccc(-n2cccn2)cc1 (stereo not drawn) [Example 129]  wild type human RORγt ligand binding domain (RORyt LBD) (Homo sapiens, UniProt P51449)      N
7  COc1nc2ccc(C(O)(c3cnnn3C)C3CCOCC3)cc2c(Cl)c1Cc1ccc(C(F)(F)F)cc1 (single isomer, unassigned) [Example 85b]  wild type human RORγt ligand binding domain (RORyt LBD) (Homo sapiens, UniProt P51449)      Y
8  COc1nc2ccc(C(O)(c3cnc(C)n3C)C3CCOCC3)cc2c(Cl)c1Cc1ccc(C(F)(F)F)cc1 (single isomer, unassigned) [Example 86c]  wild type human RORγt ligand binding domain (RORyt LBD) (Homo sapiens, UniProt P51449)      Y
9  COc1nc2ccc(C(O)(c3ccccc3)C3CCN(C(C)=O)CC3)cc2c(Cl)c1Cc1ccc(-n2ccnc2)cc1 (stereo not drawn) [Example 16c]  wild type human RORγt ligand binding domain (RORyt LBD) (Homo sapiens, UniProt P51449)      Y
